// provenance: ChEMBL document CHEMBL4130531

method description: AUC in Sprague-Dawley rat plasma at 5 mg/kg, iv by HPLC-MS analysis
Format: ADME, organism-based
parameter: AUC (µM·h)
Provide the reading as a plain figure in µM·h.

For Cc1cc([C@H](C)Nc2nccc(N3C(=O)OC[C@@H]3[C@H](C)F)n2)ncc1-c1ccnc(C(F)(F)F)c1 the compound record lists AUC as 5.5

###

method description: AUC (0 to 48 hrs) in HSD athymic nude mouse xenografted with human HCHZ2H1 cells at 200 mg/kg, po administered as single dose by LC-MS/MS analysis
Format: ADME, organism-based
Set-up: dose 200 mg/kg, time < 48 hr, route oral
measurement parameters: in vivo
parameter: AUC(0-t) at 48 h (µM·h)
Provide the reading as a plain figure in µM·h.

For Cc1cc([C@H](C)Nc2nccc(N3C(=O)OC[C@@H]3[C@H](C)F)n2)ncc1-c1ccnc(C(F)(F)F)c1 the molecule record lists AUC(0-t) at 48 h as 149

###

method description: AUC in Sprague-Dawley rat brain at 5 mg/kg, iv by HPLC-MS analysis
Assay type: ADME, organism-based
parameter: AUC

For Cc1cc([C@H](C)Nc2nccc(N3C(=O)OC[C@@H]3[C@H](C)F)n2)ncc1-c1ccnc(C(F)(F)F)c1 the compound record lists AUC as 3.4 µM·h

###

method description: Ratio of drug level in brain to plasma in C57BL/6 mouse at 30 mg/kg, po measured at 1 hr by HPLC-MS analysis
Type: ADME, organism-based
measurement parameters: brain and plasma, read-out: BPR
parameter: Kp at 1 h
// response body must contain only the number

For Cc1cc([C@H](C)Nc2nccc(N3C(=O)OC[C@@H]3[C@H](C)F)n2)ncc1-c1ccnc(C(F)(F)F)c1 the compound record lists Kp at 1 h as 0.29

###

method description: Ratio of drug level in brain to plasma in Sprague-Dawley rat at 5 mg/kg, iv by HPLC-MS analysis
Format: ADME, organism-based
measurement parameters: brain and plasma, read-out: BPR
parameter: Kp
// response body must contain only the number

For Cc1cc([C@H](C)Nc2nccc(N3C(=O)OC[C@@H]3[C@H](C)F)n2)ncc1-c1ccnc(C(F)(F)F)c1 the molecule record lists Kp as 0.61

###

method description: Cmax in HSD athymic nude mouse xenografted with human HCHZ2H1 cells at 200 mg/kg, po administered as single dose by LC-MS/MS analysis
Type: ADME, organism-based
Design: dose 200 mg/kg, route oral
measurement parameters: in vivo
parameter: Cmax (µM)
Provide the reading as a plain figure in µM.

For Cc1cc([C@H](C)Nc2nccc(N3C(=O)OC[C@@H]3[C@H](C)F)n2)ncc1-c1ccnc(C(F)(F)F)c1 the compound record lists Cmax as 16.2

###

method description: AUC (0 to 12 hrs) in nude mouse xenografted with human HMEX2838 cells at 300 mg/kg, po bid administered via gavage by LC-MS/MS analysis
Assay type: ADME, organism-based
Design: time < 12 hr, dose 300 mg/kg, route oral
measurement parameters: in vivo
parameter: AUC at 12 h

For Cc1cc([C@H](C)Nc2nccc(N3C(=O)OC[C@@H]3[C@H](C)F)n2)ncc1-c1ccnc(C(F)(F)F)c1 the compound record lists AUC at 12 h as 88.9 µM·h

###

// values below are reported logD
method description: Lipophilicity, log D of the compound at pH 7.4
Assay type: physicochemical
measurement parameters: buffer
// response body must contain only the number

{"molecule": "Cc1cc([C@H](C)Nc2nccc(N3C(=O)OC[C@@H]3[C@H](C)F)n2)ncc1-c1ccnc(C(F)(F)F)c1", "assay value": 2.8}

Query compound follows.
For Cc1cc(-c2cnc([C@H](C)Nc3nccc(N4C(=O)OC[C@@H]4C(C)C)n3)nc2)ccc1F the compound record lists logD as 3.4
